Target: T1, human α-CGRP 1-37 (WT) (human, C-terminal amide; N-terminal biotin when captured on the SA chip; 125I-labelled in the radioligand assay)
T1 construct: also called α-human
T1 peptide: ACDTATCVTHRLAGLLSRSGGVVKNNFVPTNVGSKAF
Test: Biacore, 37°C, Fab over CGRP on SA chip
Property: Kd; scope: individual binders
Form entry: value (nM) — number only.

Take a look at these entries with their results.
{"binder": "G1 variant M69 Fab (Fab, V domains shown, Fab; constant domains as m1; printed L561 read as L56I) VH: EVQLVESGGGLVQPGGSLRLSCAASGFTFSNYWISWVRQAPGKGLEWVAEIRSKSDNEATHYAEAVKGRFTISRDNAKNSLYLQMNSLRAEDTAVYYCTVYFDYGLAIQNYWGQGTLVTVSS VL: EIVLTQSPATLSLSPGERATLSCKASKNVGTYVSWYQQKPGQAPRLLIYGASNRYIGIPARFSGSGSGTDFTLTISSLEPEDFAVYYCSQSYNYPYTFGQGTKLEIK", "Kd / nM": 4.58}
{"binder": "G1 variant M25 Fab (Fab, V domains shown, Fab; constant domains as m1) VH: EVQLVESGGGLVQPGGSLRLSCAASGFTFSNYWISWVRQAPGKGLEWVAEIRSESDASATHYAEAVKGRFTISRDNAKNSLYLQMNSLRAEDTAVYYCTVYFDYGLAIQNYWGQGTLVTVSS VL: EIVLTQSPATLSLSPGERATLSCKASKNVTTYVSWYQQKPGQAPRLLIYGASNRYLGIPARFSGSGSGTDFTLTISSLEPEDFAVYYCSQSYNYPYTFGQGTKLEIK", "Kd / nM": 1.3}

Query block: State the recorded Kd for this entry: G1 variant M30 Fab (Fab, V domains shown, Fab; constant domains as m1) VH: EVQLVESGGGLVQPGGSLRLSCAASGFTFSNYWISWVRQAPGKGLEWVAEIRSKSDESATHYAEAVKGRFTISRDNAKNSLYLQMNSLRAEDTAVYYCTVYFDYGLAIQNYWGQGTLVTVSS VL: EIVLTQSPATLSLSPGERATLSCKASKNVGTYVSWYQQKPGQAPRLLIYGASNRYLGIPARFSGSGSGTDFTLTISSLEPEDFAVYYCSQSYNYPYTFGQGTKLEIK
Result block: 3.69
